Target: RSV F protein of subtype A (strain A2) on recombinant mKate-RSV virus (Respiratory syncytial virus subtype A …, UniProt P03420 26-574)
Assay: cell-based or functional assay
Known Neut IC50 (µg/ml) subtype A of a selection of binders
Report the value in µg/mL with no unit label.

[
  {
    "binder": "ADI-18952 (antibody, V domains shown, full-length IgG from yeast) VH: QVQLVESGGGLVQPGGSLRLSCAASGFAFSNYAMSWVRQAPGKGLEWVSSVSGTGGTTYYADSVNGRFAISRENSRNTLYLQMDSLRVEDTATYYCAKDGLRDLSRVYYIDVWGKGATVTVSS VL: QSVLTQPASVSGSPGQSITISCTGTSRDIGSHDYVSWYQQHPGKAPKLIIYGVNNRPSGLSNRFSGSKSGNTASLTISGLQTEDEGDYYCSSYRNGNTLGVFGTGTKLTVL",
    "reported_result": 1.59
  }
]

Turning now to a further binder:
Return reported Neut IC50 (µg/ml) subtype A. Input binder: ADI-18973 (antibody, V domains shown, full-length IgG from yeast) VH: QVQLVQSGPALVKPTQTLTLTCTFGGFSLSRHGMRVTWIRQAPGKALEWLGHIDWDDDKFYRTSLKTRLTISKDPSNNEVVLKMTNMDHVDTATYYCALMRPFWSRDDYYYSIAVWGKGTTVTVSS VL: DIVLTQSPGTLSLSPGDRATLSCRASQSVGSGYVTWYQQKPGQAPRLLIYGASNRAEGIPDRFSGSGSGTDFTLTISGLESEDFVIYYCQLYHRSPGSASQTVWTFGQGTKVEIK 9.61
